Origin of measurements: patent US20240301071A1

TEST_SYSTEM: T1, human SIRPA v1 on BWZ cells (BWZ-huSIRPA) (human, UniProt P78324 31-504)
T1 construct: also called BWZ cells overexpressing human SIRPA; BWZ-huSIRPA v1 cells
T1 sequence (P78324 31-504): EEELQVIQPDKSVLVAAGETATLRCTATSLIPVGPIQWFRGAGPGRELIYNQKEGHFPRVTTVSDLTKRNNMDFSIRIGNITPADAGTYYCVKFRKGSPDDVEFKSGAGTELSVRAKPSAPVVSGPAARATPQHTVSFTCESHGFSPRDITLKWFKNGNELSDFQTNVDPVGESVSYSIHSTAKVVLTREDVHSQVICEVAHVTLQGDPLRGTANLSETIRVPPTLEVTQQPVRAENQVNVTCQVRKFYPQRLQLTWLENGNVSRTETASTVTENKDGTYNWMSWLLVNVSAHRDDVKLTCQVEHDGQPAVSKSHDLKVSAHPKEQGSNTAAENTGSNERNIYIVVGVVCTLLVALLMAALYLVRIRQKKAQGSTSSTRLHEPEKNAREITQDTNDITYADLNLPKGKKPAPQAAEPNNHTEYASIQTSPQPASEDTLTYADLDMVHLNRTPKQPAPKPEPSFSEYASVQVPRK
ASSAY_NOTES: flow cytometry titration on BWZ-huSIRPA cells, 4 C
Below is a list of entries, each paired with its recorded EC50 value.
Express your answer in nM, writing the number without its unit.

- BINDER: "3F9-25 (antibody, human IgG1, V domains shown, also called mAb 3F9-25) VH: EVQLLESGGGLVQPGGSLRLSCAASGFTFSSYAMSWVRQAPGKGLEWVATISEYGGSYTYYAESVKGRFTISRDNSKNTLYLQMNSLRAEDTAVYYCARPPYDDYYGGFQYWGQGTLVTVSS VL: DIQLTQSPSSLSASVGDRVTITCRASKSVSSGGYSYMHWYQQKPGKAPKLLIYLASNLESGVPSRFSGSGSGTDFTLTISSVQPEDFATYYCQHNRELPWTFGQGTKLEIK"
  OBSERVED_RESULT: 0.96

We next turn to a different binder, shown below.
Given 3F9-21 (antibody, human IgG1, V domains shown, also called mAb 3F9-21) VH: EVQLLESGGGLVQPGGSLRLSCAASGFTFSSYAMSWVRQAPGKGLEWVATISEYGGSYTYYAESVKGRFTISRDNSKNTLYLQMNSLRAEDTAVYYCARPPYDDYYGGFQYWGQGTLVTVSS VL: DIQLTQSPSSLSASVGDRVTITCRASKSVSSGGYSYMHWYQQKPGKAPKLLIYLASNLESGVPSRFSGSGSGTDFTLTISSVQPEDFATYYCQHNRELPTTFGQGTKLEIK , state its recorded EC50.
0.64
